# assay.explanation: Circulatory half life measured after intravenous bolus administration of 50 mg/kg of compound to rats
# Type: ADME, organism-based
# Set-up: dose 50 mg/kg, route intravenous
# assay.context: rat, in vivo
Entries and their half-life

compound	half-life
CN[C@H](CC(C)C)C(=O)N[C@H]1C(=O)N[C@@H](CC(N)=O)C(=O)N[C@H]2C(=O)N[C@H]3C(=O)N[C@H](C(=O)N[C@H](C(=O)O)c4cc(O)cc(O)c4-c4cc3ccc4O)[C@H](O)c3ccc(c(Cl)c3)Oc3cc2cc(c3OC2OC(CO)C(O)C(O)C2OC2CC(C)(NC(=O)OCc3cc(C)c(OC(=O)NCCOCCO)c(C)c3)C(O)C(C)O2)Oc2ccc(cc2Cl)[C@H]1O (stereo partly drawn)	547 min
CN[C@H](CC(C)C)C(=O)N[C@H]1C(=O)N[C@@H](CC(N)=O)C(=O)N[C@H]2C(=O)N[C@H]3C(=O)N[C@H](C(=O)N[C@H](C(=O)O)c4cc(O)cc(O)c4-c4cc3ccc4O)[C@H](O)c3ccc(c(Cl)c3)Oc3cc2cc(c3O[C@@H]2O[C@H](CO)[C@@H](O)[C@H](O)[C@H]2O[C@H]2C[C@](C)(N)[C@H](O)[C@H](C)O2)Oc2ccc(cc2Cl)[C@H]1O	20.4 min
CN[C@H](CC(C)C)C(=O)N[C@H]1C(=O)N[C@@H](CC(N)=O)C(=O)N[C@H]2C(=O)N[C@H]3C(=O)N[C@H](C(=O)N[C@H](C(=O)O)c4cc(O)cc(O)c4-c4cc3ccc4O)[C@H](O)c3ccc(c(Cl)c3)Oc3cc2cc(c3OC2OC(CO)C(O)C(O)C2OC2CC(C)(NC(=O)OCc3cc(C)c(OC(=O)CNC(=O)COCCO)c(C)c3)C(O)C(C)O2)Oc2ccc(cc2Cl)[C@H]1O (stereo partly drawn)	629 min

----------
# assay.explanation: Maximum plasma concentration measured after intravenous bolus administration of 50 mg/kg of compound to rats
# Format: ADME, organism-based
# Set-up: dose 50 mg/kg, route intravenous
# assay.context: rat
Entries and their Cmax

compound	Cmax
CN[C@H](CC(C)C)C(=O)N[C@H]1C(=O)N[C@@H](CC(N)=O)C(=O)N[C@H]2C(=O)N[C@H]3C(=O)N[C@H](C(=O)N[C@H](C(=O)O)c4cc(O)cc(O)c4-c4cc3ccc4O)[C@H](O)c3ccc(c(Cl)c3)Oc3cc2cc(c3O[C@@H]2O[C@H](CO)[C@@H](O)[C@H](O)[C@H]2O[C@H]2C[C@](C)(N)[C@H](O)[C@H](C)O2)Oc2ccc(cc2Cl)[C@H]1O	162 µg/mL
CN[C@H](CC(C)C)C(=O)N[C@H]1C(=O)N[C@@H](CC(N)=O)C(=O)N[C@H]2C(=O)N[C@H]3C(=O)N[C@H](C(=O)N[C@H](C(=O)O)c4cc(O)cc(O)c4-c4cc3ccc4O)[C@H](O)c3ccc(c(Cl)c3)Oc3cc2cc(c3OC2OC(CO)C(O)C(O)C2OC2CC(C)(NC(=O)OCc3cc(C)c(OC(=O)C(C)NC(=O)COCCO)c(C)c3)C(O)C(C)O2)Oc2ccc(cc2Cl)[C@H]1O (some centres undefined)	47.9 µg/mL
CN[C@H](CC(C)C)C(=O)N[C@H]1C(=O)N[C@@H](CC(N)=O)C(=O)N[C@H]2C(=O)N[C@H]3C(=O)N[C@H](C(=O)N[C@H](C(=O)O)c4cc(O)cc(O)c4-c4cc3ccc4O)[C@H](O)c3ccc(c(Cl)c3)Oc3cc2cc(c3OC2OC(CO)C(O)C(O)C2OC2CC(C)(NC(=O)OCc3cc(C)c(OC(=O)NCCOCCO)c(C)c3)C(O)C(C)O2)Oc2ccc(cc2Cl)[C@H]1O (some centres undefined)	54.6 µg/mL
CN[C@H](CC(C)C)C(=O)N[C@H]1C(=O)N[C@@H](CC(N)=O)C(=O)N[C@H]2C(=O)N[C@H]3C(=O)N[C@H](C(=O)N[C@H](C(=O)O)c4cc(O)cc(O)c4-c4cc3ccc4O)[C@H](O)c3ccc(c(Cl)c3)Oc3cc2cc(c3OC2OC(CO)C(O)C(O)C2OC2CC(C)(NC(=O)OCc3cc(C)c(OC(=O)CNC(=O)COCCO)c(C)c3)C(O)C(C)O2)Oc2ccc(cc2Cl)[C@H]1O (some centres undefined)	25.5 µg/mL

----------
# assay.explanation: Clearance measured after intravenous bolus administration of 50 mg/kg of compound to rats
# Type: ADME, organism-based
# Design: dose 50 mg/kg, route intravenous
# assay.context: rat, in vivo
recorded.metric: clearance (mL/min/kg)

molecule	unit	measured.result
CN[C@H](CC(C)C)C(=O)N[C@H]1C(=O)N[C@@H](CC(N)=O)C(=O)N[C@H]2C(=O)N[C@H]3C(=O)N[C@H](C(=O)N[C@H](C(=O)O)c4cc(O)cc(O)c4-c4cc3ccc4O)[C@H](O)c3ccc(c(Cl)c3)Oc3cc2cc(c3O[C@@H]2O[C@H](CO)[C@@H](O)[C@H](O)[C@H]2O[C@H]2C[C@](C)(N)[C@H](O)[C@H](C)O2)Oc2ccc(cc2Cl)[C@H]1O [VANCOMYCIN]	mL/min/kg	10.7

----------
# assay.explanation: Solubility was measured in saline at 25 degree C
# Type: physicochemical
recorded.metric: solubility (mg/mL)

> print(dat)
    cpd.smiles  recorded.metric   unit  measured.result
1  O=C(O)COCCO       solubility  mg/mL              128

----------
# assay.explanation: Area under the curve measured after intravenous bolus administration of 50 mg/kg of compound to rats
# Assay type: ADME, organism-based
# Design: dose 50 mg/kg, route intravenous
# assay.context: rat, in vivo
recorded.metric: AUC

compound	recorded.metric	measured.result
CN[C@H](CC(C)C)C(=O)N[C@H]1C(=O)N[C@@H](CC(N)=O)C(=O)N[C@H]2C(=O)N[C@H]3C(=O)N[C@H](C(=O)N[C@H](C(=O)O)c4cc(O)cc(O)c4-c4cc3ccc4O)[C@H](O)c3ccc(c(Cl)c3)Oc3cc2cc(c3OC2OC(CO)C(O)C(O)C2OC2CC(C)(NC(=O)OCc3cc(C)c(OC(=O)C(C)NC(=O)COCCO)c(C)c3)C(O)C(C)O2)Oc2ccc(cc2Cl)[C@H]1O (some centres undefined)	AUC	282 µg·h/mL
CN[C@H](CC(C)C)C(=O)N[C@H]1C(=O)N[C@@H](CC(N)=O)C(=O)N[C@H]2C(=O)N[C@H]3C(=O)N[C@H](C(=O)N[C@H](C(=O)O)c4cc(O)cc(O)c4-c4cc3ccc4O)[C@H](O)c3ccc(c(Cl)c3)Oc3cc2cc(c3OC2OC(CO)C(O)C(O)C2OC2CC(C)(NC(=O)OCc3cc(C)c(OC(=O)NCCOCCO)c(C)c3)C(O)C(C)O2)Oc2ccc(cc2Cl)[C@H]1O (some centres undefined)	AUC	717 µg·h/mL
CN[C@H](CC(C)C)C(=O)N[C@H]1C(=O)N[C@@H](CC(N)=O)C(=O)N[C@H]2C(=O)N[C@H]3C(=O)N[C@H](C(=O)N[C@H](C(=O)O)c4cc(O)cc(O)c4-c4cc3ccc4O)[C@H](O)c3ccc(c(Cl)c3)Oc3cc2cc(c3OC2OC(CO)C(O)C(O)C2OC2CC(C)(NC(=O)OCc3cc(C)c(OC(=O)CNC(=O)COCCO)c(C)c3)C(O)C(C)O2)Oc2ccc(cc2Cl)[C@H]1O (some centres undefined)	AUC	386 µg·h/mL
CN[C@H](CC(C)C)C(=O)N[C@H]1C(=O)N[C@@H](CC(N)=O)C(=O)N[C@H]2C(=O)N[C@H]3C(=O)N[C@H](C(=O)N[C@H](C(=O)O)c4cc(O)cc(O)c4-c4cc3ccc4O)[C@H](O)c3ccc(c(Cl)c3)Oc3cc2cc(c3O[C@@H]2O[C@H](CO)[C@@H](O)[C@H](O)[C@H]2O[C@H]2C[C@](C)(N)[C@H](O)[C@H](C)O2)Oc2ccc(cc2Cl)[C@H]1O	AUC	78.8 µg·h/mL

----------
# assay.explanation: Volume of distribution at a steady state measured after intravenous bolus administration of 50 mg/kg of compound to rats
# Type: ADME, organism-based
# Parameters: dose 50 mg/kg, route intravenous
# assay.context: rat, in vivo, read-out: Vss
Entries and their Vd

compound	Vd (L/kg)
CN[C@H](CC(C)C)C(=O)N[C@H]1C(=O)N[C@@H](CC(N)=O)C(=O)N[C@H]2C(=O)N[C@H]3C(=O)N[C@H](C(=O)N[C@H](C(=O)O)c4cc(O)cc(O)c4-c4cc3ccc4O)[C@H](O)c3ccc(c(Cl)c3)Oc3cc2cc(c3OC2OC(CO)C(O)C(O)C2OC2CC(C)(NC(=O)OCc3cc(C)c(OC(=O)NCCOCCO)c(C)c3)C(O)C(C)O2)Oc2ccc(cc2Cl)[C@H]1O (stereo partly drawn)	1.65
CN[C@H](CC(C)C)C(=O)N[C@H]1C(=O)N[C@@H](CC(N)=O)C(=O)N[C@H]2C(=O)N[C@H]3C(=O)N[C@H](C(=O)N[C@H](C(=O)O)c4cc(O)cc(O)c4-c4cc3ccc4O)[C@H](O)c3ccc(c(Cl)c3)Oc3cc2cc(c3OC2OC(CO)C(O)C(O)C2OC2CC(C)(NC(=O)OCc3cc(C)c(OC(=O)CNC(=O)COCCO)c(C)c3)C(O)C(C)O2)Oc2ccc(cc2Cl)[C@H]1O (stereo partly drawn)	2.72
CN[C@H](CC(C)C)C(=O)N[C@H]1C(=O)N[C@@H](CC(N)=O)C(=O)N[C@H]2C(=O)N[C@H]3C(=O)N[C@H](C(=O)N[C@H](C(=O)O)c4cc(O)cc(O)c4-c4cc3ccc4O)[C@H](O)c3ccc(c(Cl)c3)Oc3cc2cc(c3O[C@@H]2O[C@H](CO)[C@@H](O)[C@H](O)[C@H]2O[C@H]2C[C@](C)(N)[C@H](O)[C@H](C)O2)Oc2ccc(cc2Cl)[C@H]1O	0.309
